- assay: Microsomal stability
- Type: in vitro ADME, mouse
- experimentalContext: mouse, liver microsomes, MLM, Test Conc. 10 µM; read-out: Microsomal stability (% remaining at 120 min)
readout: remaining at 2 h, 10 µM

[ask] Find the recorded remaining at 2 h, 10 µM belonging to `O=C(NO)c1ccc(Cn2cc(-c3ccc(CN4CCCC4)cc3)nn2)cc1` and report it.
[reply] > 75%

* * *

- systemUnderTest: UniProt P05177
- Sequence (P05177 whole entry, species assumed): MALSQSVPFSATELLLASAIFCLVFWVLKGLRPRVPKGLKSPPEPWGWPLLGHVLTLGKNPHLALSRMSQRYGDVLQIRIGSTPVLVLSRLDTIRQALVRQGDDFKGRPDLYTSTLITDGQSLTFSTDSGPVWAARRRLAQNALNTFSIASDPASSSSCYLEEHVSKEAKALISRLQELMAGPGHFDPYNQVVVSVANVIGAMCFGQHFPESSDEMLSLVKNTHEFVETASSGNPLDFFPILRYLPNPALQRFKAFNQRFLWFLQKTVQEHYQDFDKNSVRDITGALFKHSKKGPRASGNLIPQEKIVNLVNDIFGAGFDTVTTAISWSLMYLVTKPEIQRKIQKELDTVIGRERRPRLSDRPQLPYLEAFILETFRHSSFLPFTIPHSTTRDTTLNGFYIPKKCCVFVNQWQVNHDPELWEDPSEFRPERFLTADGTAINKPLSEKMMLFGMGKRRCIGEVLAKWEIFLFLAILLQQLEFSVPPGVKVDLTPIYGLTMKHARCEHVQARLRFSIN
- assay: CYP inhibition
- Format: in vitro ADME
readout: IC50

[ask] Requested read-out IC50, target or system UniProt P05177, entry `O=C(NO)c1ccc(Cn2cc(-c3ccc(CN4CCCC4)cc3)nn2)cc1`
[reply] > 60 µM

* * *

- systemUnderTest: PfHDAC1 (Plasmodium falciparum, UniProt Q7K6A1)
- Sequence (Q7K6A1 1-449): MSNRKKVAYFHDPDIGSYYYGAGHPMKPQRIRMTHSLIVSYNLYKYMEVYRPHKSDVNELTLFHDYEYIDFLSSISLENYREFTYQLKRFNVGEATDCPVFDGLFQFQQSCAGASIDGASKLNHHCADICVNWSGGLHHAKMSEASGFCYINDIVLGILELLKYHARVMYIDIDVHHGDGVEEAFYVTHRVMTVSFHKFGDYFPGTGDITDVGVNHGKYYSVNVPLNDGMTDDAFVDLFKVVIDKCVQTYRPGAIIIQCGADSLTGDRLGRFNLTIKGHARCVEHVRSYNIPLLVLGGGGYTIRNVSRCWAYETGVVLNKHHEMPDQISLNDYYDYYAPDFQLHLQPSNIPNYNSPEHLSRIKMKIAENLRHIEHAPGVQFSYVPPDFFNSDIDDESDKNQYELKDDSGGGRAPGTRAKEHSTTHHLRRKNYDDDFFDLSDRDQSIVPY
readout: IC50 (µM)
Dear colleague, please return just the value in µM, with no unit written.

[ask] Which IC50 is listed for `O=C(NO)c1ccc(Cn2cc(-c3ccc(CN4CCCC4)cc3)nn2)cc1` ?
[reply] 0.031

* * *

- assay: Microsomal stability
- Type: in vitro ADME, human
- experimentalContext: human, liver microsomes, HLM, Test Conc. 10 µM; read-out: Microsomal stability (% remaining at 120 min)
readout: remaining at 2 h, 10 µM

[ask] If you can, please state the reported remaining at 2 h, 10 µM value of O=C(NO)c1ccc(Cn2cc(-c3ccc(CN4CCCC4)cc3)nn2)cc1 [FNDR-20123] .
[reply] > 75%

* * *

- systemUnderTest: UniProtKB P08684
- Sequence (P08684 whole entry, species assumed): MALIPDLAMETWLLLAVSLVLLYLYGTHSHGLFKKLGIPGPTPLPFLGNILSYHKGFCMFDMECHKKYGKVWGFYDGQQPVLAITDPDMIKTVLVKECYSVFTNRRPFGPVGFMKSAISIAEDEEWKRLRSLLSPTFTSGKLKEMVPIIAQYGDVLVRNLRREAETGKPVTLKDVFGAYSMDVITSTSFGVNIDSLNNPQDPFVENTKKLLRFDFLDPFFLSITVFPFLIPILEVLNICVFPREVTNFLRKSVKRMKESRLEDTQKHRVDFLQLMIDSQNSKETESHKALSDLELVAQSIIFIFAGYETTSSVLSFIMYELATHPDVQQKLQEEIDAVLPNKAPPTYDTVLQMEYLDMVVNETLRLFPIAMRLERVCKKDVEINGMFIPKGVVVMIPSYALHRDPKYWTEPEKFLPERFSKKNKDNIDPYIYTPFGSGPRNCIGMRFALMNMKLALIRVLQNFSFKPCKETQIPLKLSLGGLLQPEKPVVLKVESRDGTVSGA
readout: pIC50
// returns pIC50 (minus log10 of molar concentration), number only

[ask] State its pIC50 on UniProtKB P08684: O=C(NO)c1ccc(Cn2cc(-c3ccc(CN4CCCC4)cc3)nn2)cc1 [FNDR-20123]
[reply] 4.57

* * *

- assay: Repeated dose 14-day toxicokinetics (TK) study
- Assay type: in vivo, Sprague–Dawley rats
- experimentalContext: male, Sprague-Dawley, rat, in vivo, po, 100 mg/kg, male, day 14, 100 mg/kg bw
readout: AUC(0-t) (ng·h/mL)
Write the number in ng·h/mL without appending the unit.

[ask] Tell me the measured AUC(0-t) of O=C(NO)c1ccc(Cn2cc(-c3ccc(CN4CCCC4)cc3)nn2)cc1 [FNDR-20123] , please.
[reply] 957

* * *

- assay: Repeated dose 14-day toxicokinetics (TK) study
- Type: in vivo, Sprague–Dawley rats
- experimentalContext: male, Sprague-Dawley, rat, in vivo, po, 100 mg/kg, male, day 14, 100 mg/kg bw
readout: AUC(0-inf)
Kindly report the value followed by its unit.

[ask] Consider the compound O=C(NO)c1ccc(Cn2cc(-c3ccc(CN4CCCC4)cc3)nn2)cc1 [FNDR-20123] and give its measured AUC(0-inf).
[reply] 1080 ng·h/mL
